tested_system: UniProtKB Q06124
Sequence (Q06124 whole entry): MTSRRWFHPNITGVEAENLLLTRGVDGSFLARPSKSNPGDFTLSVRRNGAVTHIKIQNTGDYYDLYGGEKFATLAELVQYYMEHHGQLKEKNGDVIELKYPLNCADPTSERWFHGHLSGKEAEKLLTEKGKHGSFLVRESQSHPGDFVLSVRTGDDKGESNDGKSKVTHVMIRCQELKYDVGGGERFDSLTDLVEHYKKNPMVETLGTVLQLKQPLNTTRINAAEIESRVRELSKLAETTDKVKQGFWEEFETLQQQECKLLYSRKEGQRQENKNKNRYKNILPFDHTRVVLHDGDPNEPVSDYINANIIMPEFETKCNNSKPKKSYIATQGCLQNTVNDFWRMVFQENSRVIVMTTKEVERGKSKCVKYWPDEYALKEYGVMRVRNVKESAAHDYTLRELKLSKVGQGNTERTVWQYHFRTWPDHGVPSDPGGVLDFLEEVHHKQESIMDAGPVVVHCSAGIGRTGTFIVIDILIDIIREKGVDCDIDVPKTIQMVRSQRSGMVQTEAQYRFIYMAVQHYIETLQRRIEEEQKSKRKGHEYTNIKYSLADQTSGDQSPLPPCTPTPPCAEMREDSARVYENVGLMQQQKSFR
assay_summary: SHP2 Biochemical Assay (DiFMUP conversion, pIRS1 activating peptide)
Counter-ions that a name gives are not always drawn.
readout: IC50 (nM)
# output: bare number, implied unit nM

Request: Answer with the recorded IC50 for the compound listed here: Cn1cnc2ccc(-c3c[nH]c4nc(N5[C@@H]6CC[C@H]5[C@@H](F)[C@@H](N)C6)cnc34)c(Cl)c2c1=O
Result: 18

Request: Answer with the recorded IC50 for the compound listed here: Cc1nc2ccc(-c3n[nH]c4nc(N5[C@@H]6CC[C@H]5C[C@@H](N)C6)c(CO)nc34)c(Cl)c2s1
Result: 7.3

Request: Answer with the recorded IC50 for the compound listed here: Cn1cc2c(Cl)c(-c3c[nH]c4nc(N5[C@@H]6CC[C@H]5[C@H](F)[C@H](N)C6)cnc34)ccc2n1 (racemic)
Result: 15

Request: Answer with the recorded IC50 for the compound listed here: Cc1nc2ccc(-c3n[nH]c4nc(N5[C@H]6CC[C@@H]5[C@@H](F)[C@@H](N)C6)c(CO)nc34)c(Cl)c2s1
Result: 4

Request: Answer with the recorded IC50 for the compound listed here: COc1cnc2ccc(-c3c[nH]c4nc(N5[C@H]6CC[C@@H]5[C@@H](F)[C@@H](N)C6)cnc34)c(Cl)c2n1 [Example 106, hydrochloride]
Result: 22

Request: Answer with the recorded IC50 for the compound listed here: Cn1cc2c(Cl)c(-c3n[nH]c4nc(N5[C@@H]6CC[C@H]5[C@@H](F)[C@@H](N)C6)c(CO)nc34)ccc2n1
Result: 15
